- Tested on: HCT-116 colon
- Test Details: NCI-60 one-dose screen, 48 h (100 = growth as untreated, 0 = no growth, -100 = all killed)
- Applied Conditions: 10 µM unless noted
This is part of a sample that, as a whole, favours compounds with a hit. Of some 83,000 tested, about 20% had one in any assay. Activity calls are given as the source filed them. The calls were made as follows: active = growth percent below 10; inactive = the rest.
Recorded growth values for a group of compounds are listed next.

Compound	growth
CS(=O)(=O)c1ccc(-c2nc3cc(Cl)ccc3n2CC(=O)N/N=C/c2ccc(Cl)cc2)cc1	42.1% (inactive)
CCc1cc(Cc2cc(CC)cc(C(C)(C)C)c2O)c(O)c(C(C)(C)C)c1	6.96% (active)
Cn1nnnc1-c1ccc(N)cc1	84.6% (inactive)
CCN(CC)c1ccc(Nc2ccc(CC(=O)c3ccccc3)cc2)cc1	82.4% (inactive)
CC(=O)c1ccc2c(c1)CCN2	100% (inactive)
C=C1C(=O)O[C@H]2[C@H]1CC/C(C(=O)NCCCCCCCCNC(=O)/C1=C/CC[C@@]3(C)O[C@H]3[C@H]3OC(=O)C(=C)[C@@H]3CC1)=C\CC[C@@]1(C)O[C@@H]21	29.7% (inactive)
CCOc1cccnc1/C=N/NC(N)=S	32.6% (inactive)
O=C1CSC(c2ccc(O)cc2)N1c1nnc(Cn2cnnc2)o1 (stereo not drawn)	93% (inactive)
Cc1nc2ccc(C(=O)NCc3cc(C(=O)O)c(C)o3)cc2nc1C	95.5% (inactive)
C[C@@H]1CC[C@@H]2[C@@H]1[C@H](OC(=O)/C=C/c1ccccc1)[C@]1(CCCOCCOCCOCCOC(=O)CCCC[C@@H]3SC[C@@H]4NC(=O)N[C@@H]43)C[C@@H](OC(=O)CO)[C@@]2(C)O1	92.7% (inactive)
C/C(Cc1ccc(Cl)cc1)=C(/c1ccc(Cl)cc1)c1ccc(OCCN(C)C)cc1	16.5% (inactive)
Cc1cc(-c2noc(C(F)(F)F)n2)ccc1N1CCN(c2cc(C(=O)N(C)C)no2)CC1	45.7% (inactive)
O=c1[nH]nc(-c2ccc(Cl)cc2)cc1Cc1ccccc1	93% (inactive)
Clc1ccc(/C=N\N=c2\scc(-c3ccc(Cl)cc3)n2/N=C/c2ccc(Cl)cc2)cc1	90% (inactive)
OC(COc1cccc2ccccc12)CN1CCN(c2ccccc2)CC1 (stereo not drawn)	86.9% (inactive)
NS(=O)(=O)Oc1ccc(NC(=O)C23CC4CC(CC(C4)C2)C3)cc1Cl	107% (inactive)
O=[N+]([O-])c1ccc2[nH]cc(-c3c4ccsc4cc4[nH]c5ccc([N+](=O)[O-])cc5c34)c2c1	2.78% (active)
CCCCOc1nc2ccc(Cl)cc2cc1/C=C/C(=O)/C=C1/CC(c2cc3cc(Cl)ccc3nc2OCCCC)Nc2ccccc2N1 (stereo not drawn)	97.6% (inactive)
Nc1ccc2c(S(=O)(=O)O)ccc(S(=O)(=O)O)c2c1	93.9% (inactive)
CCNCCNc1cc(-c2ccc(C#N)cc2)c(C#N)c2nc3ccccc3n12	-27.2% (active)
O=c1[nH]c(NCc2nnnn2-c2ccc(Br)cc2)nc2sc3c(c12)CCCC3	81.2% (inactive)
CC1=NN(c2cccc(Cl)c2)C(=O)/C1=C\c1cn(CC(O)CN2CCCCC2)c2ccccc12 (stereo not drawn)	10.2% (inactive)
O=C(O)C1C[C@](O)(c2ccc(F)cc2)[C@@H](c2ccc(F)cc2)O1 (stereo partly drawn)	100% (inactive)
O=C(Oc1ccc[nH]c1=O)c1cc([N+](=O)[O-])cc([N+](=O)[O-])c1	103% (inactive)
O[C@H]1CO[C@H]2[C@@H]1OC[C@@H]2Oc1ccc(Nc2nc(Nc3ccc(F)c(Cl)c3)ncc2F)cc1Cl	105% (inactive)
Cc1cc(-c2ccc(N(C)C)cc2)c2sc(=O)[nH]c2n1	50.1% (inactive)
O=C1/C(=C/c2ccccc2[N+](=O)[O-])COc2ccc(O)c(O)c21	-15.4% (active)
N#Cc1c(N)nc2c(nnn2-c2cccc(Br)c2)c1N	91.3% (inactive)
C[N+](C)(C)CCOC(OCC[N+](C)(C)C)(c1ccccc1)c1ccccc1	105% (inactive)
N=C(N)c1ccc(-c2ccc(-c3ccc(Cl)c(Cl)c3)o2)cc1	-83% (active)
CNC(=O)NCC1OC(n2cnc3c(NC(=O)Nc4ccccc4)ncnc32)C2OC(C)(C)OC12 (stereo not drawn)	81.1% (inactive)
COc1cccc(CCC2CCCN(c3cc(C)nc(N)n3)C2)c1 (stereo not drawn)	7.36% (active)
COc1ccc(C(=O)/C=C/c2cc3c(c(OC)c2)OCC(=O)N3)cc1	11.8% (inactive)
CC[C@]1(O)C[C@H]2CN(CCc3c([nH]c4ccccc34)[C@@](C(=O)OC)(c3cc4c(cc3OC)N(C=O)[C@H]3[C@@](O)(C(=O)OC)[C@H](OC(C)=O)[C@]5(CC)C=CCN6CC[C@]43[C@@H]65)C2)C1	-36.7% (active)
N#Cc1c(NC(=O)c2ccccc2I)sc2c1CCCC2	26.4% (inactive)
O=C(Nc1ccc(N2CCCCC2)c(Cl)c1)c1ccc(Br)o1	84.3% (inactive)
C[C@H]1[C@H](C)CC[C@]2(C(=O)N3CCN(C)CC3)CC[C@]3(C)C(=CC[C@@H]4[C@@]5(C)C/C(=C/c6cccnc6)C(=O)C(C)(C)[C@@H]5CC[C@]43C)[C@H]12	-88.2% (active)
CCCCCCCC/C=C/CCCCCCCC1=NCC[N+]1(CCO)CCO	59.8% (inactive)

Origin of values: PubChem BioAssay (NCI)
